Target: T1, APC5531-AA
T1 chain: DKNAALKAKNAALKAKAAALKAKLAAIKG
Assay: two-hybrid library CCmax;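 also: natural log of median RNA to DNA barcode read ratio; higher means stronger binding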
Settings: mean of both orientations
Overview of reported interaction score across a group of binders:
Please reply with the value in numeric form only.

DKNAALKAELAAIEAELAAIEAKLAANKG [APC5009-AA]
-0.726

## Task Find the recorded interaction score belonging to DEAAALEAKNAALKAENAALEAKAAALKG [APC2543-AA] and report it.
## Result -1.8

## Task Find the recorded interaction score belonging to DEAAALEAKLAANKAELAANEAKLAAIKG [APC2981-AA] and report it.
## Result -1.79

## Task Find the recorded interaction score belonging to DENAALEAKLAAIKAELAAIEAELAAIEG [APC4100-AA] and report it.
## Result -0.557

## Task Find the recorded interaction score belonging to DEAAALEAKLAAEKAEAAALEAENAALEG [APC2724-AA] and report it.
## Result -1.53

## Task Find the recorded interaction score belonging to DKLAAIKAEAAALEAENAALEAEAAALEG [APC1242-AA] and report it.
## Result -1.83

## Task Find the recorded interaction score belonging to DELAAIEAKNAALKAENAALEAEAAALEG [APC542-AA] and report it.
## Result -1.88

## Task Find the recorded interaction score belonging to DEAAALEAKNAALKAKNAALKAELAAEEG [APC2556-AA] and report it.
## Result -1.7

## Task Find the recorded interaction score belonging to DEAAALEAENAALEAKLAAEKAENAALEG [APC2474-AA] and report it.
## Result -1.71

## Task Find the recorded interaction score belonging to DKAAALKAEAAALEAELAAEEAKNAALKG [APC3265-AA] and report it.
## Result -1.82

## Task Find the recorded interaction score belonging to DKAAALKAKAAALKAEAAALEAKAAALKG [APC3323-AA] and report it.
## Result -1.7

## Task Find the recorded interaction score belonging to DENAALEAKAAALKAKAAALKAELAAEEG [APC4336-AA] and report it.
## Result -2.38

## Task Find the recorded interaction score belonging to DEAAALEAELAANEAKLAAIKAKLAAIKG [APC2811-AA] and report it.
## Result -1.88
